- System: Citrobacter freundii
- METHOD_DESCRIPTION: Broth dilution MIC (CLSI)
- Assay type: cell-based
- ASSAY_SETUP: read-out: MIC
MIC overview

Solved entries (count: 4):
MOLECULE	MIC
[H]/N=C(/N)N[C@H]1[C@H](O)[C@@H](O)[C@H](O[C@@H]2O[C@@H](C)[C@](O)(C=O)[C@H]2O[C@@H]2O[C@@H](CO)[C@H](O)[C@@H](O)[C@@H]2NC)[C@@H](N/C(N)=N\[H])[C@@H]1O	1.6 µg/mL
CCCCOc1ccc2cc(CN3C(=O)CC[C@H]3C(=O)OC)c3cc(OC)c(OC)cc3c2c1	> 100 µg/mL
NNC(=O)c1ccncc1 [INH, isoniazid, reference compound]	> 100 µg/mL
COC(=O)[C@@H]1CCC(=O)N1Cc1cc2ccc(OCc3ccccc3)cc2c2cc(OC)c(OC)cc12	> 100 µg/mL

Now for a further molecule.
# query: MIC of entry COC(=O)[C@@H]1CCC(=O)N1Cc1cc2ccc(OC)cc2c2cc(OC)c(OC)cc12
> 100 µg/mL

Cited source for all entries: paper PMC9154192
